From: ChEMBL document CHEMBL3286257

species: Homo sapiens; assay: Selectivity index, ratio of KB for DP1 receptor (unknown origin) to KB for EP2 receptor (unknown origin)
value_kind: Ratio

(I) CCN(CC)c1ccc(C(=O)NCCn2c(C)cc3ccccc32)cc1
(II) CCCN(CCC)c1ccc(C(=O)NCCn2c(C)cc3ccccc32)cc1
(III) Cc1cc2ccccc2n1CCNC(=O)c1ccc(N2CCOCC2)cc1
(IV) Cc1cc2ccccc2n1CCNC(=O)c1ccc(N2CCOCC2)c(F)c1
(V) Cc1cc2ccccc2n1CCNC(=O)c1ccc(N2CCN(C)CC2)c(F)c1
Order these by Ratio, descending, and give the full ranking. Give your ranking as a list of the labels in the requested order.
I, III, II, IV, V
(I: 1220, III: 533, II: 298, IV: 85, V: 22)

(P) Cc1cc2ccccc2n1CCNC(=O)c1ccc(N2CCCCC2)cc1
(Q) CCN(CC)c1ccc(C(=O)NCCc2c(C)[nH]c3ccccc23)cc1
(R) Cc1cc2ccccc2n1CCNC(=O)c1ccc(N2CCC(O)CC2)cc1
Arrange by Ratio, high to low. Give your ranking as a list of the labels in the requested order.
Q, P, R
(Q: 1370, P: 273, R: 172)

----------
species: Homo sapiens; test: Selectivity index, ratio of KB for EP4 receptor (unknown origin) to KB for EP2 receptor (unknown origin)
value_kind: Ratio

Example molecules with recorded Ratio:
Cc1cc2ccccc2n1CCNC(=O)c1ccc(N2CCOCC2)c(F)c1; 565
Cc1cc2ccccc2n1CCNC(=O)c1ccc2c(c1)n(C)c(=O)n2C; 1730
Cc1cc2ccccc2n1CCNC(=O)c1ccc(N2CCC(O)CC2)cc1; 2620
CCN(CC)c1ccc(C(=O)NCCc2c(C)[nH]c3ccccc23)cc1; 6940

(1) Cc1cc2ccccc2n1CCNC(=O)c1ccc(N2CCCCC2)cc1
(2) Cc1cc2ccccc2n1CCNC(=O)c1ccc(N2CCCCCC2)cc1
(3) CCN(CC)c1ccc(C(=O)NCCn2c(C)cc3ccccc32)cc1
(4) Cc1cc2ccccc2n1CCNC(=O)c1ccc(N2CCN(C)CC2)c(F)c1
(5) Cc1cc2ccccc2n1CCNC(=O)c1ccc(N2CCOCC2)cc1
Sort (5 molecules) by Ratio: min first. Give your ranking as a list of the labels in the requested order.
4, 2, 5, 1, 3

----------
Measured CC50 accompanies every entry in the list below.
assay: Cytotoxicity against rat C6 cells; format: cell-based; details: C6 cells

Example compounds with recorded CC50:
CCN(CC)c1ccc(C(=O)NCCc2c(C)[nH]c3ccccc23)cc1; > 500 µM
Cc1cc2ccccc2n1CCNC(=O)c1ccc(N2CCOCC2)c(F)c1; > 500 µM

Proceeding to the next compound to report its CC50.
The reported CC50 of the compound "Cc1cc2ccccc2n1CCNC(=O)c1ccc(-c2nnn[nH]2)cc1" was > 300 µM

----------
organism: Homo sapiens; experiment: Selectivity index, ratio of KB for IP receptor (unknown origin) to KB for EP2 receptor (unknown origin)
value_kind: Ratio

Example compounds with recorded Ratio:
Cc1cc2ccccc2n1CCNC(=O)c1ccc(N2CCOCC2)c(F)c1; 217
CCCN(CCC)c1ccc(C(=O)NCCn2c(C)cc3ccccc32)cc1; 95
Cc1cc2ccccc2n1CCNC(=O)c1ccc(N2CCCCC2)cc1; 360
Cc1cc2ccccc2n1CCNC(=O)c1ccc(N2CCC(O)CC2)cc1; 675
Cc1cc2ccccc2n1CCNC(=O)c1ccc(N2CCOCC2)cc1; 206

(I) CCN(CC)c1ccc(C(=O)NCCn2c(C)cc3ccccc32)cc1
(II) Cc1cc2ccccc2n1CCNC(=O)c1ccc(N2CCN(C)CC2)c(F)c1
Pick one: I or II . Which has the bigger Ratio number? Choose, then provide that item's label.
I
(I: 2960, II: 1420)

(A) Cc1cc2ccccc2n1CCNC(=O)c1ccc(N2CCCCCC2)cc1
(B) Cc1cc2ccccc2n1CCNC(=O)c1ccc2c(c1)n(C)c(=O)n2C
Pick one: A or B . Which has the bigger Ratio number? Choose, then provide that item's label.
B
(B: 1200, A: 375)
